Sourced from PubChem BioAssay (NCI)

Please go through the items and note down their growth inhibition.
Assay: NCI Yeast Anticancer Drug Screen. Data for the cln2 rad14 strain (AID 165);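 further: 0% = growth equal to vehicle treated cultures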
Settings: S. cerevisiae cln2 rad14 strain, at 50.0 µM, hits give high values
The panel holds about 79,000 compounds, 15% with a hit somewhere; the sample as a whole holds those more often. Where a SMILES comes first, the peptide text is derived from it. The star is where a group is joined. Trt = c1ccc(C(c2ccccc2)(c2ccccc2)*)cc1; OtBu = CC(C)(C)O*
The reply should be a number in %, with the unit left off.

Name the recorded growth inhibition of the compound listed here: Cc1c(C(C)(C)C)cc(C(C)(C)C)c(O)c1CN(C)Cc1c(C)c(C(C)(C)C)cc(C(C)(C)C)c1O 99.5

In one line, give reported growth inhibition of the entry O=C1C/C(=C\c2ccccc2)C(=O)c2ccccc2N1 . 33.6

Provide one value: measured growth inhibition of Cc1ccc(N2C(=O)CCSC2=S)cc1C 38.9

For the compound O=C1/C(=C/c2ccc(F)cc2)CNC/C1=C\c1ccc(F)cc1 , give its reported growth inhibition. 70.6

Given Oc1ccc(-c2ccccc2)cc1Cl , respond with its growth inhibition. 97.5

Please list growth inhibition recorded for the compound CCOC1(c2ccccc2)c2ccccc2S(=O)(=O)N1C (stereo unspecified) 56.9

Give the value of growth inhibition reported for the following: O=C(Nc1ccc(C(F)(F)F)cc1[N+](=O)[O-])C(=O)C(C(=O)c1ccc2ccccc2c1)C1OC(=O)c2ccccc21 (stereo unspecified) -28.6

Return growth inhibition for the following compound: CCOC(=O)C(CCOC)C(=O)OCC 41.8

Tell me growth inhibition reported for Cc1c(Cl)ccc(O)c1[N+](=O)[O-] 84.8

Tell me measured growth inhibition for CN(Cc1cc(C(C)(C)C)cc(Br)c1O)Cc1cc(C(C)(C)C)cc(Br)c1O please. 89.5

Input CCOC(=O)N1c2ccc3ccccc3c2C=CC1C#N (stereo unspecified) , output reported growth inhibition. 95.5

Supply recorded growth inhibition for CS(C)=O.[Cl-].[Cl-].[NH-]CC(O)CN(Cc1ccccc1)CC(O)CN.[Pt] (stereo unspecified) here. -6.25

Tell me measured growth inhibition for CC1CC(N)=NC1C(=O)NCCC#N (stereo unspecified) please. 72

Consider the compound CC(C)c1ccc(O)c(O)c(=O)c1 and give its recorded growth inhibition. 91.7

Consider the compound CCN(CC)CC(O)c1ccnc2c(O)cccc12 (stereo unspecified) . State its measured growth inhibition. 11.9

Given the compound CCN(CC)CCNc1ccc(C)c2sc3ccc(OC)cc3c(=O)c12 , write its reported growth inhibition. 30.9

Supply reported growth inhibition belonging to this compound: Cc1ccc(C(c2ccc(N(C)C)cc2)c2ccc(N(C)C)cc2)cc1 69

Respond only with growth inhibition recorded for CN(C)CC1CCc2c(ccc3ccccc23)C1=O (stereo unspecified) 39.7

Indicate the recorded growth inhibition value for this compound: CN(C)C(=O)c1ccccc1SC(=S)NCc1ccccc1 95.3

Hello, please tell me recorded growth inhibition for this one: O=C1CCCCC1=C(I)I 39.8

Provide only the value of recorded growth inhibition for [N-]=[N+]=Nc1c([N+](=O)[O-])c(Cl)nc2ccccc12 90.5

Name the recorded growth inhibition of the item Cc1cc(NC(=S)SC(C)C)ccc1Br in your answer. 98.9

Output measured growth inhibition for this item: Cc1nc(Nc2ccc(Cl)cc2)sc1C(=O)NNc1ccc([N+](=O)[O-])cc1[N+](=O)[O-] 89.4

Fill in reported growth inhibition for this entry: Cc1nc(N)nn1C 6.7

Provide growth inhibition value for the following compound: Cc1cc(O)ccc1N=Nc1ccccc1 99.4

For the compound FC(F)(F)c1cc(NC(=S)SC2CCCCC2)ccc1Cl , report growth inhibition. 88.8

Provide only the value of recorded growth inhibition for Cc1c(O)c(Br)c(C)c(O)c1Br (tested in a mixture with another compound) 1.05

Please give measured growth inhibition of the following entry: Fc1ccc(NC(=S)SCc2ccc(Cl)c(Cl)c2)c(F)c1 98.8

Specify measured growth inhibition for Cc1cc2c(c(C(N)=O)c1C)-c1cccc(F)c1C2=O . 75.5

Query growth inhibition for Cc1cccc(C)c1NC(=O)/C(Cl)=C(/Cl)C(=O)O 82.8

For CCC[n+]1ccc(/C=N\NC(N)=S)c2ccccc21 , write its growth inhibition. 5.25

Look up and state reported growth inhibition for O=c1c2ccccc2sc2c(CO)ccc(NCCN3CCCCC3)c12 24.5

Tell me growth inhibition reported for CCOc1ccc(N=Nc2ccccc2)cc1 38

Report growth inhibition for CN1CCN(CCCN)CC1 29.9

Read off the recorded growth inhibition for Cc1ccsc1/C=N/Nc1cc(C)c2cccc(C)c2n1 33.8

Query growth inhibition for Oc1c(C(O)(c2ccccc2)c2ccc3ccccc3c2O)ccc2ccccc12 82.5

Report growth inhibition for CCCCCCCCCCCCCCCCC/C=N\NC(=O)CCCC(=O)N/N=C/CCCCCCCCCCCCCCCCC 99

Give the value of growth inhibition reported for the following: Nc1cc(=O)[nH]c(=S)[nH]1.[Pd] 71

Give growth inhibition for the following compound: COc1ccc2c(c1)[n+]([O-])c(-c1ccc(Cl)cc1)c(N)[n+]2[O-] 98.8

Provide measured growth inhibition value, entry: CC1CCC(C)(C)c2cc([N+](=O)[O-])cc([N+](=O)[O-])c21 (stereo unspecified) -8.1

Report growth inhibition, nothing else, for this compound: OC(COc1ccc(Cl)cc1)COc1ccc(Cl)cc1 99

Determine its reported growth inhibition: CC(=O)OC(C#N)CC(C)(C)/[N+]([O-])=[N+](\[O-])C(C)(C)CC(C#N)OC(C)=O (stereo unspecified) 3.2

Name the recorded growth inhibition of the compound listed here: COc1cc2c(cc1OC)NCC1COc3c(ccc(OC)c3OC)C1=N2 (stereo unspecified) 11.1

Provide measured growth inhibition value, entry: CC(=O)c1c(-c2ccc(Cl)cc2)c(-c2ccc(Cl)cc2)nn(CCO)c1=O 89.3

Could you please provide reported growth inhibition for CC(C)(C)OC(=O)CNC(=O)C(Cc1ccccc1)NC(=O)C(N)CSC(c1ccccc1)(c1ccccc1)c1ccccc1 (stereo not drawn) (H-Cys(Trt)-Phe-Gly-OtBu; configuration not given here) ? Thanks! 41.3

Given COc1cccc(C2c3cc4c(cc3OC(N3CCCC3)C2C)OCO4)c1 (stereo unspecified) , respond with its growth inhibition. 76.3
